Tested on: MDA-MB-468 spheroids with HUVEC/MSC, viability
method_notes: Anticancer human tumor MDA-MB-468 cell line growth inhibition [PI3K]; active means viability on the fitted dose curve at most 10% of control; inactive means the rest;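 further: spheroids exposed to agents for seven days before readout; 100% = DMSO vehicle control viability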
condition_parameters: second compound 0.316 µM; first compound 3 µM
Answer with one of the outcomes active, inactive

Cn1cnc2c(F)c(Nc3ccc(Br)cc3Cl)c(C(=O)NOCCO)cc21 + CC(Nc1ccc2c(c1)OCCn1cc(N3C(=O)OCC3C(F)F)nc1-2)C(N)=O :: inactive
Cn1cnc2c(F)c(Nc3ccc(Br)cc3Cl)c(C(=O)NOCCO)cc21 + COc1c(OCCCN2CCOCC2)ccc2c3n(c(=NC(=O)c4cnc(N)nc4)nc12)CCN3 :: active
Cn1cnc2c(F)c(Nc3ccc(Br)cc3Cl)c(C(=O)NOCCO)cc21 + Cc1nc(NC(=O)N2CCCC2C(N)=O)sc1-c1ccnc(C(C)(C)C(F)(F)F)c1 :: inactive

IN: Recorded call for Cn1cnc2c(F)c(Nc3ccc(Br)cc3Cl)c(C(=O)NOCCO)cc21 + CC(Nc1ncnc2nc[nH]c12)c1cc2cccc(Cl)c2c(=O)n1-c1ccccc1 ?
OUT: inactive

====

Recorded viability, T/C, one value per entry.
System: MDA-MB-468 spheroids with HUVEC/MSC, viability
method_notes: Anticancer human tumor MDA-MB-468 cell line growth inhibition [PI3K];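 further: spheroids exposed to agents for seven days before readout; 100% = DMSO vehicle control viability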
condition_parameters: second compound 1 µM; first compound 0.0316 µM; stronger effect = lower value
Kindly provide the numeric value in % only, without the unit symbol.

Worked examples, 10 compounds total:
CC(C)NCC(C(=O)N1CCN(c2ncnc3c2C(C)CC3O)CC1)c1ccc(Cl)cc1 (stereo not drawn) + CC(Nc1ncnc2nc[nH]c12)c1cc2cccc(Cl)c2c(=O)n1-c1ccccc1 :: 72.2
Cn1nccc1Nc1nccc(-c2ccn(C(CO)c3ccc(Cl)c(F)c3)c(=O)c2)n1 (stereo not drawn) + CC(Nc1ncnc2nc[nH]c12)c1cc2cccc(Cl)c2c(=O)n1-c1ccccc1 :: 65.7
CCN1CCN(Cc2ccc(Nc3ncc(F)c(-c4cc(F)c5nc(C)n(C(C)C)c5c4)n3)nc2)CC1 + Cc1nc(NC(=O)N2CCCC2C(N)=O)sc1-c1ccnc(C(C)(C)C(F)(F)F)c1 :: 77
CC1(C)CCC(Nc2ncc(C(F)(F)F)c(-c3c[nH]c4c(P(C)(C)=O)c(C#N)ccc34)n2)CN1 (stereo not drawn) + CC(Nc1ncnc2nc[nH]c12)c1cc2cccc(Cl)c2c(=O)n1-c1ccccc1 :: 12.8
Cn1nccc1Nc1nccc(-c2ccn(C(CO)c3ccc(Cl)c(F)c3)c(=O)c2)n1 (stereo not drawn) + COc1c(OCCCN2CCOCC2)ccc2c3n(c(=NC(=O)c4cnc(N)nc4)nc12)CCN3 :: 3.06
CC(Cn1ccc(-c2ccc(C#N)c(Cl)c2)n1)NC(=O)c1cc(C(C)O)[nH]n1 (stereo not drawn) + CC(Nc1ncnc2nc[nH]c12)c1cc2cccc(Cl)c2c(=O)n1-c1ccccc1 :: 55.9
Cn1ncnc1[C@H]1c2n[nH]c(=O)c3cc(F)cc(c23)N[C@@H]1c1ccc(F)cc1 + COc1c(OCCCN2CCOCC2)ccc2c3n(c(=NC(=O)c4cnc(N)nc4)nc12)CCN3 :: 3.68
Cn1ncc(Cl)c1-c1cc(C(=O)NC(CN)Cc2cccc(F)c2)sc1Cl (stereo not drawn) + CC(Nc1ccc2c(c1)OCCn1cc(N3C(=O)OCC3C(F)F)nc1-2)C(N)=O :: 76.2
C[C@@H](NC(=O)c1ncnc(N)c1Cl)c1ncc(C(=O)Nc2cc(C(F)(F)F)c(Cl)cn2)s1 + Cc1nc(NC(=O)N2CCCC2C(N)=O)sc1-c1ccnc(C(C)(C)C(F)(F)F)c1 :: 91.9
C=CC(=O)N1CCN(c2nc(=O)n(-c3c(C)ccnc3C(C)C)c3nc(-c4c(O)cccc4F)c(F)cc23)C(C)C1 (stereo not drawn) + COc1c(OCCCN2CCOCC2)ccc2c3n(c(=NC(=O)c4cnc(N)nc4)nc12)CCN3 :: 4.14

IN: What value of viability, T/C has been reported for the following compound? Cn1ncc(Cl)c1-c1cc(C(=O)NC(CN)Cc2cccc(F)c2)sc1Cl (stereo not drawn) + COc1c(OCCCN2CCOCC2)ccc2c3n(c(=NC(=O)c4cnc(N)nc4)nc12)CCN3
OUT: 3.44

IN: Field request: viability, T/C | item: CC(C)NCC(C(=O)N1CCN(c2ncnc3c2C(C)CC3O)CC1)c1ccc(Cl)cc1 (stereo not drawn) + Cc1nc(NC(=O)N2CCCC2C(N)=O)sc1-c1ccnc(C(C)(C)C(F)(F)F)c1
OUT: 95.8

IN: What value of measured viability, T/C is listed for CC1(C)CCC(Nc2ncc(C(F)(F)F)c(-c3c[nH]c4c(P(C)(C)=O)c(C#N)ccc34)n2)CN1 (stereo not drawn) + Cc1nc(NC(=O)N2CCCC2C(N)=O)sc1-c1ccnc(C(C)(C)C(F)(F)F)c1 ?
OUT: 13.8
